Procedure summary: chemical genetic growth profiling, strain panel (AID 1159580);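 note: tested at 20 µM; growth read once vehicle control cultures reached saturation at 30 °C; lower values mean less growth of the strain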
Measurement context: S. cerevisiae deletion strains, growth OD, locus YNL250W, strain rad50
The whole screen tested about 5,500 compounds, of which about 2,000 (36%) were called active. Another 18% or so got no clear call; they are omitted. Cut-off read from the data, not from the text of the source: active = normalized growth mostly below about 0.91 (no sharp cut-off); inconclusive = no clear call, values can overlap the other calls; inactive = mostly above about 0.92. Some of the results follow.
Write down one outcome, taken from active, inactive

# Molecule, Class label
data = [
    ("CC1=C(/C=C/C(C)=C/C=C/C(C)=C/C(=O)O)C(C)(C)CCC1", "inactive"),
    ("CC(Cc1ccc(O)c(O)c1)(NN)C(=O)O (centres undefined)", "inactive"),
    ("CC1=C(/C=C/C(C)=C/C=C/C(C)=C/CO)C(C)(C)CCC1", "inactive"),
    ("O=C1OCCN1/N=C\\c1ccc([N+](=O)[O-])o1", "active"),
    ("CO[C@@H]1[C@@H](O[C@@H]2O[C@H](C)[C@@H](O[C@H]3C[C@@](C)(O)[C@H](O)[C@H](C)O3)[C@H](N(C)C)[C@H]2O)[C@@H](CC=O)C[C@@H](C)[C@@H](O[C@H]2CC[C@H](N(C)C)[C@@H](C)O2)/C=C/C=C/C[C@H](C)OC(=O)C[C@H]1O", "inactive"),
    ("CC(=O)O[C@H]1CC[C@@]2(C)C(=CCC3C2CC[C@@]2(C)C3CC[C@@H]2C(C)CCCC(C)C)C1 (some centres undefined)", "inactive"),
    ("CC1=C(/C=C/C(C)=C/C=C/C(C)=C/C=C/C=C(C)/C=C/C=C(C)/C=C/C2=C(C)CCCC2(C)C)C(C)(C)CCC1", "inactive"),
    ("CC(=O)OC/C=C(C)/C=C/C=C(C)/C=C/C1=C(C)CCCC1(C)C", "inactive"),
]

# outcome recorded in this test, key = CCOP(=S)(OCC)SCCSCC
inactive
